Tested on: DeltatarO mutant
Assay Method Text: S. aureus survival, RN4220 and DeltatarO strains – OD600, teichoic acid synthesis inhibitors, primary screen (AID 463173)
Run Conditions: S. aureus RN4220 wild type/DeltatarO growth, OD600, 18 h, stronger effect = lower value, screened at 18.75 µg/mL (by protocol)
Hit rate of the full screen: of about 52,000 compounds, about 4,300 (8.3%) were called active. This excerpt belongs to a sample that is enriched for actives.
Quick list: survival per entry.

Below: 4 compounds and their reported survival.
[[record]]
smiles_representation = "CCC(CC)C(=O)N1CCN(Cc2ccccc2)CC1"
endpoint_label = "survival"
recorded_result = "94% (inactive)"

[[record]]
smiles_representation = "Cc1nn(C(=O)c2ccccc2F)c(C)c1S(=O)(=O)N1CCCCCC1"
endpoint_label = "survival"
recorded_result = "83% (inactive)"

[[record]]
smiles_representation = "COc1cc(OC)cc(C(=O)Nc2cc(-c3nc4cc(Cl)ccc4o3)ccc2Cl)c1"
endpoint_label = "survival"
recorded_result = "71% (inactive)"

[[record]]
smiles_representation = "CC(=O)N1c2ccccc2N(C)C(=O)C1(C)C"
endpoint_label = "survival"
recorded_result = "88% (inactive)"


Entry COCCCn1c(=O)c2sccc2n2c(CCCC(=O)Nc3ccc(F)c(F)c3)nnc12 , survival reported as 83% (inactive)
